The origin of these recorded values is ChEMBL document CHEMBL1154674.

Protocol Details: Biodistribution in NMRI mouse cerebrum assessed per gram of tissue at 3.7 MBq/mL, iv after 2 mins by gamma counting
Type: ADME, organism-based
Stated Conditions: in vivo
Measurement Type: Drug uptake (%)

Worked examples, 2 compounds total:
CN(C)c1ccc2nc(-c3ccc([18F])cc3)sc2c1
8.84
Nc1ccc2nc(-c3ccc([18F])cc3)sc2c1
13.97

a. CNc1ccc2nc(-c3ccc([18F])cc3)sc2c1
b. Cc1ccc2nc(-c3ccc([18F])cc3)sc2c1
c. [11CH3]Nc1ccc(-c2nc3ccc(O)cc3s2)cc1 [PITTSBURGH COMPOUND B]
hey, can you rank those compounds up there by Drug uptake? biggest number first please Rank the items, then write their labels in that order.
a, b, c
(a: 12.13%, b: 5.33%, c: 3.6%)
